Every entry's value here was drawn from patent US20100075978A1.

system: recombinant human B1 receptors (Homo sapiens, UniProt P46663)
Construct: host or cells: CHO (CHO-B1)
assay.overview: Functional assay: cytosolic calcium ion concentration measured with plate reader fluorimeter in CHO-B1 cells, agonist LysDABK
Type: cell-based
run.parameters: CHO-B1 cells, LysDABK at EC80, [Ca2+]i; read-out: B1 func.
pIC50: −log10 of the molar value. Counter-ions that a name gives are not always drawn.
List of pIC50 values.

Observe how each entry below is paired with its result.
CC(CNC(=O)c1ccc(S(=O)(=O)Nc2ccccc2Oc2ccc(Cl)cc2Cl)cc1)N1CCN(c2ccncc2)CC1 (stereo not shown) ... > 7.70
O=C(NCCCC1CCNCC1)c1ccc(S(=O)(=O)Nc2ccccc2Oc2ccc(Br)cc2Cl)cc1 [Example 30, hydrochloride] ... 7.00 to 7.70
O=C(CCNC(=O)c1ccc(S(=O)(=O)Nc2ccccc2Oc2ccc(Cl)cc2Cl)cc1)NCC1CCNCC1 ... 7.00 to 7.70

Next compound, please.
For "O=C(NCCc1ccc(C2=NCCN2)cc1)c1ccc(S(=O)(=O)Nc2ccccc2Oc2ccc(Cl)cc2)cc1" the compound record lists pIC50 as > 7.70

* * *

system: recombinant human B1 receptors (Homo sapiens, UniProt P46663)
Construct: host or cells: CHO (CHO-B1)
assay.overview: Functional assay: cytosolic calcium ion concentration measured with plate reader fluorimeter in CHO-B1 cells, agonist LysDABK
Type: cell-based
run.parameters: CHO-B1 cells, LysDABK at EC80, [Ca2+]i; read-out: B1 func.
pIC50: −log10 of the molar value. Where a name gives a salt, the structure may show the parent alone.
List of pIC50 values.

Observe how each entry below is paired with its result.
O=C(Nc1ccc(N2CCC(N3CCCCC3)CC2)cc1)c1ccc(S(=O)(=O)Nc2ccccc2Oc2ccc(Cl)cc2Cl)cc1 ... 7.00 to 7.70
O=C(NCCN1CCN(c2ccncc2)CC1)c1ccc(S(=O)(=O)Nc2ccccc2Oc2ccc(Cl)cc2Cl)cc1 [Example 1, dihydrochloride] ... > 7.70
O=C(NCCCN1CCC(N2CCCCC2)CC1)c1ccc(S(=O)(=O)Nc2ccccc2Oc2ccc(Cl)cc2Cl)cc1 ... > 7.70

For "O=C(NCCN1CCN(c2cnccn2)CC1)c1ccc(S(=O)(=O)Nc2ccccc2Oc2ccc(Br)cc2Cl)cc1" the compound record lists pIC50 as 7.00 to 7.70

For O=C(NCCC1CCNCC1)c1ccc(S(=O)(=O)Nc2ccccc2Oc2ccc(Cl)cc2Cl)cc1 [Example 11, trifluoroacetate] the compound record lists pIC50 as 7.00 to 7.70

For O=C(NCc1ccc(CC2CCNCC2)cc1)c1ccc(S(=O)(=O)Nc2ccccc2Oc2ccc(Br)cc2Cl)cc1 [Example 166, hydrochloride] the compound record lists pIC50 as 7.00 to 7.70

For O=C(NCCCCC1CCNCC1)c1ccc(S(=O)(=O)Nc2ccccc2Oc2ccc(Br)cc2Cl)cc1 [Example 167, hydrochloride] the compound record lists pIC50 as 7.00 to 7.70

* * *

system: human recombinant bradykinin B1 receptor (Homo sapiens, UniProt P46663)
Construct: purchased Euroscreen ES-091; host or cells: CHO cells
Sequence (P46663 1-353): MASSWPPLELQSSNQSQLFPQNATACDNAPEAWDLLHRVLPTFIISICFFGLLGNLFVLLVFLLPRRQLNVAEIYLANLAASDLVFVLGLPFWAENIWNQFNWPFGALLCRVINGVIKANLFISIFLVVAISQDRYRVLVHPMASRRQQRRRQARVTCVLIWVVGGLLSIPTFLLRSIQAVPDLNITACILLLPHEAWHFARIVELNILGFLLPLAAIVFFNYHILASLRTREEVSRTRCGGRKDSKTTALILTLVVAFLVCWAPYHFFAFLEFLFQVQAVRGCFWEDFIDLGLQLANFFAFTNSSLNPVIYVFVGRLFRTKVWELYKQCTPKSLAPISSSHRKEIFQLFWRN
assay.overview: Human recombinant bradykinin B1 receptor binding
run.parameters: radioligand [3H]-[Des-Arg10] Kallidin, CHO cell membranes; read-out: B1 binding
Structures can show the parent of a compound that is named as a salt.
List of Ki values.

Observe how each entry below is paired with its result.
COc1ccc(Oc2ccccc2NS(=O)(=O)c2ccc(C(=O)NCCCN3CCC(N4CCCCC4)CC3)cc2)c(Cl)c1 ... 0.02 to 0.1 µM
O=C(NCCCN1CCC(N2CCCCC2)CC1)c1ccc(S(=O)(=O)Nc2ccccc2Oc2ccc(Cl)c(Cl)c2)cc1 ... < 0.02 µM
O=C(Nc1ccc(N2CCC(N3CCCCC3)CC2)cc1)c1ccc(S(=O)(=O)Nc2cc(F)ccc2Oc2ccc(Br)cc2)cc1 ... < 0.02 µM
O=C(Nc1ccc(N2CCC(N3CCCCC3)CC2)cc1)c1ccc(S(=O)(=O)Nc2ccccc2Oc2ccc(C(F)(F)F)cc2)cc1 ... 0.02 to 0.1 µM

For "O=C(N[C@H]1CC[C@H](CCN2CCCC2)CC1)c1ccc(S(=O)(=O)Nc2ccccc2Oc2ccc(Cl)cc2Cl)cc1" the compound record lists Ki as < 0.02 µM

For "O=C(NCCCN1CCC(N2CCCCC2)CC1)c1ccc(S(=O)(=O)Nc2ccccc2Oc2ccc(Br)cc2)cc1" the compound record lists Ki as < 0.02 µM

For N=C(N)NCc1ccc(CNC(=O)c2ccc(S(=O)(=O)Nc3ccccc3Oc3ccc(Br)cc3)cc2)cc1 [Example 23, hydrochloride] the compound record lists Ki as 0.02 to 0.1 µM

For "Cc1cccc(N2CCN(CCNC(=O)c3ccc(S(=O)(=O)Nc4ccccc4Oc4ccc(Cl)cc4Cl)cc3)CC2)n1" the compound record lists Ki as < 0.02 µM
